Biological target: human NTCP (Homo sapiens, UniProt Q14973)
Sequence (Q14973 1-349): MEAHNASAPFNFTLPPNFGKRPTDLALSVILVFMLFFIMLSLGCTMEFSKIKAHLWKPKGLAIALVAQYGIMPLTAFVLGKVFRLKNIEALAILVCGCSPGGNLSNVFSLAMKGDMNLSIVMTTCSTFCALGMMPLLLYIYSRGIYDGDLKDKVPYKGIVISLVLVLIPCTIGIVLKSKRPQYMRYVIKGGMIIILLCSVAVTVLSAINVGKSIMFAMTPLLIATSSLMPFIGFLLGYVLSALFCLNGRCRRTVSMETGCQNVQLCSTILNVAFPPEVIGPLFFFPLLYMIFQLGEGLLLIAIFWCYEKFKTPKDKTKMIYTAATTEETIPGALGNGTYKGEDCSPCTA
Assay: Screening taurocholate uptake assay (96-well, [14C]taurocholate, 10 µM drug)
Settings: combined ranking from functional and binding assay B-scores
Where a name gives a salt, the structure may show the parent alone.
experimental_endpoint: Ranking score
In your answer, state the number alone without any accompanying words.

Previously resolved entries follow.
{"compound": "CCCOc1ccc(C(=O)OCCN(CC)CC)cc1N [Proparacaine hydrochloride]", "Ranking score": 984.211}
{"compound": "CC(C)(CO)[C@@H](O)C(=O)NCCCO [Panthenol (D)]", "Ranking score": 899.92}
{"compound": "COc1cccc(N(C)C(=S)Oc2ccc3c(c2)CCCC3)n1 [Liranaftate]", "Ranking score": 904.804}
{"compound": "CC(NCCC(c1ccccc1)c1ccccc1)c1ccccc1 (centres unmarked) [Fendiline hydrochloride]", "Ranking score": 880.552}
{"compound": "CCCCNc1ccc(C(=O)OCCOCCOCCOCCOCCOCCOCCOCCOCCOC)cc1 [Benzonatate]", "Ranking score": 933.857}

In: Under human NTCP (Homo sapiens, UniProt Q14973), report Ranking score for CC(C)NCC(O)c1ccc(O)c(O)c1.Cl (single isomer, unassigned; (-)) [(-)-Isoproterenol hydrochloride]
Out: 845.999

In: Under human NTCP (Homo sapiens, UniProt Q14973), report Ranking score for Nc1ccc(S(=O)(=O)[N-]c2cnc3ccccc3n2)cc1.[Na+] [Sulfaquinoxaline sodium salt]
Out: 893.639

In: Under human NTCP (Homo sapiens, UniProt Q14973), report Ranking score for CS(=O)(=O)O.OC(CCN1CCCCC1)(c1ccccc1)c1ccccc1 [Pridinol methanesulfonate salt]
Out: 875.882

###

Biological target: human NTCP (Homo sapiens, UniProt Q14973)
Sequence (Q14973 1-349): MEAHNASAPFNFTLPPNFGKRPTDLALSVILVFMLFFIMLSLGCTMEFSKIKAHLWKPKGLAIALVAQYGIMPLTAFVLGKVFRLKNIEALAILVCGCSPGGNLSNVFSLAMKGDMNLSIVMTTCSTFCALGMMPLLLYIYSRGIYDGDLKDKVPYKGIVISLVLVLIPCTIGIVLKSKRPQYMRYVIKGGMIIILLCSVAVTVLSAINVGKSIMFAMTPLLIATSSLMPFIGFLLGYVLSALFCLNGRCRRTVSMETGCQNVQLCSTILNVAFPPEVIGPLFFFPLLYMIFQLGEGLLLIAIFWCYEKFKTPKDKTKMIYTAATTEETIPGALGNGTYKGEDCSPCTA
Assay: Screening taurocholate uptake assay (96-well, [14C]taurocholate, 10 µM drug)
Details: screening taurocholate uptake, 10 µM drug
Counter-ions that a name gives are not always drawn.
Lab note: anything with B-score functional assay at or over -0.06 counts as class 1; the rest go in class 0.

Past entries and their recorded results:
{"compound": "C[C@@](Cc1ccc(O)c(O)c1)(NN)C(=O)O [Carbidopa]", "target_under_test": "human NTCP (Homo sapiens, UniProt Q14973)", "label_class": "class 1"}
{"compound": "CCS(=O)(=O)CCn1c([N+](=O)[O-])cnc1C [Tinidazole]", "target_under_test": "human NTCP (Homo sapiens, UniProt Q14973)", "label_class": "class 0"}
{"compound": "O=C(N[C@H](CO)[C@H](O)c1ccc([N+](=O)[O-])cc1)C(Cl)Cl [Chloramphenicol]", "target_under_test": "human NTCP (Homo sapiens, UniProt Q14973)", "label_class": "class 1"}
{"compound": "O=C(O)Cc1ccccc1Nc1c(Cl)cccc1Cl [Diclofenac sodium]", "target_under_test": "human NTCP (Homo sapiens, UniProt Q14973)", "label_class": "class 0"}
{"compound": "CC[C@@H](CO)NCCN[C@@H](CC)CO [Ethambutol dihydrochloride]", "target_under_test": "human NTCP (Homo sapiens, UniProt Q14973)", "label_class": "class 0"}

In: Does C[C@]12CCC(=O)C=C1CC[C@@H]1[C@@H]2[C@@H](O)C[C@@]2(C)[C@H]1CC[C@]2(O)C(=O)CO [Hydrocortisone base] have a reported B-score functional assay of at least -0.06?
Out: class 1

In: Does CC#C[C@]1(O)CC[C@H]2[C@@H]3CCC4=CC(=O)CCC4=C3[C@@H](c3ccc(N(C)C)cc3)C[C@@]21C [Mifepristone] have a reported B-score functional assay of at least -0.06?
Out: class 0

In: Does CCN1CCC[C@H]1CNC(=O)c1c(OC)ccc(Br)c1OC.Cl [Remoxipride Hydrochloride] have a reported B-score functional assay of at least -0.06?
Out: class 1

In: Does CC(C)(C)NCC(O)c1ccc(O)c(CO)c1 (stereo not shown) [Salbutamol] have a reported B-score functional assay of at least -0.06?
Out: class 1

In: Does Cn1cnc2c1c(=O)[nH]c(=O)n2C [Theobromine] have a reported B-score functional assay of at least -0.06?
Out: class 0

###

Biological target: human NTCP (Homo sapiens, UniProt Q14973)
Test: Screening taurocholate uptake assay (96-well, [14C]taurocholate, 10 µM drug)
Settings: Prestwick library screen, taurocholate uptake, 10 µM drug
Structures can show the parent of a compound that is named as a salt.
# B-score functional assay values compiled below
In your answer, state the number alone without any accompanying words.

In: Find the measured B-score functional assay of CC(=O)Nc1nnc(S(N)(=O)=O)s1 [Acetazolamide] and report it.
Out: 0.532

In: Find the measured B-score functional assay of `CC(=O)S[C@@H]1CC2=CC(=O)CC[C@]2(C)[C@H]2CC[C@@]3(C)[C@@H](CC[C@@]34CCC(=O)O4)[C@H]12` and report it.
Out: -0.089

In: Find the measured B-score functional assay of `CCn1cc(C(=O)O)c(=O)c2cc(F)c(N3CCNCC3)cc21` and report it.
Out: -0.135

In: Find the measured B-score functional assay of Cc1nccn1CC1CCc2c(c3ccccc3n2C)C1=O.Cl (centres unmarked) [Ondansetron Hydrochloride] and report it.
Out: 0.043

In: Find the measured B-score functional assay of O=C(Nc1ccccc1)OCC(CN1CCCCC1)OC(=O)Nc1ccccc1 (centres unmarked) [Diperodon hydrochloride] and report it.
Out: 0.512

###

Molecular target: human NTCP (Homo sapiens)
Assay: Screening taurocholate uptake assay (96-well, [14C]taurocholate, 10 µM drug)
Settings: ranking over the functional and the binding screening assay
Where a name gives a salt, the structure may show the parent alone.
Lab note: anything with Ranking score at or over 200 counts as true (1); the rest go in false (0).

Past entries and their recorded results:
{"compound": "Cc1ncc([N+](=O)[O-])n1CC(O)CCl (stereo not shown) [Ornidazole]", "target_under_test": "human NTCP (Homo sapiens)", "label_class": "true (1)"}
{"compound": "COc1ccc(-c2cc(=O)c3c(O)cc(O[C@@H]4O[C@H](CO[C@@H]5O[C@@H](C)[C@H](O)[C@@H](O)[C@H]5O)[C@@H](O)[C@H](O)[C@H]4O)cc3o2)cc1O [Diosmin]", "target_under_test": "human NTCP (Homo sapiens)", "label_class": "true (1)"}
{"compound": "N#CC(c1ccc(Cl)cc1)c1c(Cl)cc(-n2ncc(=O)[nH]c2=O)cc1Cl (stereo not shown) [Diclazuril]", "target_under_test": "human NTCP (Homo sapiens)", "label_class": "false (0)"}
{"compound": "CC(=O)OC1CN2CCC1CC2 (stereo not shown) [Aceclidine Hydrochloride]", "target_under_test": "human NTCP (Homo sapiens)", "label_class": "false (0)"}
{"compound": "CCCCc1cc2ccccc2c(OCCN(C)C)n1 [Dimethisoquin hydrochloride]", "target_under_test": "human NTCP (Homo sapiens)", "label_class": "true (1)"}
{"compound": "COc1c(O[C@@H]2O[C@H](CO)[C@@H](O)[C@H](O)[C@H]2O)cc2c(c1OC)-c1ccc(SC)c(=O)cc1[C@@H](NC(C)=O)CC2 [Thiocolchicoside]", "target_under_test": "human NTCP (Homo sapiens)", "label_class": "false (0)"}

In: Does C[C@@H]1CN(c2c(F)c(N)c3c(=O)c(C(=O)O)cn(C4CC4)c3c2F)C[C@H](C)N1 [Sparfloxacin] have a reported Ranking score of at least 200?
Out: true (1)
